meta.source: patent US20070155795A1

Molecular target: m1 muscarinic receptor subtype (Homo sapiens, UniProt P11229)
Construct: expressed in transfected cells; host or cells: NIH-3T3 (ATCC CRL 1658)
Sequence (P11229 whole entry): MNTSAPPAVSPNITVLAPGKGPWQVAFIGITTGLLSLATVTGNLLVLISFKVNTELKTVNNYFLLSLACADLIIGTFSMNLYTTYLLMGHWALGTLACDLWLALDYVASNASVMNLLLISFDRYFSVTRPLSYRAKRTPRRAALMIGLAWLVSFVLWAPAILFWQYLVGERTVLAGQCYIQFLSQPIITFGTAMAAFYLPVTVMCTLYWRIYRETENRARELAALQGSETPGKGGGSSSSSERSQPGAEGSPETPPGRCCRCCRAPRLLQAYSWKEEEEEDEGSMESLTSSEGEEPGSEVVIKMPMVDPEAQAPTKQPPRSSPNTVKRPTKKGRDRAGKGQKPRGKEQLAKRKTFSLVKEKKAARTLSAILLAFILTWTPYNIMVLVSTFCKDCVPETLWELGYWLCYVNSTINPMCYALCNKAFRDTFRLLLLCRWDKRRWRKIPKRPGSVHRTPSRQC
Experiment: R-SAT assay, muscarinic receptor subtype m1
Type: cell-based
Details: transfected NIH-3T3 cells, 5 days, relative to maximum response to carbachol
Decide by m1 % Eff: equal to or exceeding 70% means YES, less means NO.

Input line: Confirm if m1 % Eff reported for the compound CCCCC1CCN(CCCn2ncc3ccccc32)CC1 is 70% or above.
Output line: YES

Input line: Confirm if m1 % Eff reported for the compound CCCCC1CCN(CCCn2nc(Cl)c3ccccc32)CC1 is 70% or above.
Output line: NO

Input line: Confirm if m1 % Eff reported for the compound CCCCC1CCN(CCCc2nc3c(C)cccc3[nH]2)CC1 is 70% or above.
Output line: NO

Input line: Confirm if m1 % Eff reported for the compound CCCCC=C1CCN(CCCn2ncc3ccccc32)CC1 is 70% or above.
Output line: NO

Input line: Confirm if m1 % Eff reported for the compound CCCCC1CCN(CCCc2noc3ccccc23)CC1 is 70% or above.
Output line: YES

Input line: Confirm if m1 % Eff reported for the compound CCCCC1CCN(CCCc2n[nH]c3ccccc23)CC1.Cl is 70% or above.
Output line: YES

Input line: Confirm if m1 % Eff reported for the compound CCCCC1CCN(CCCn2nnc3ccccc32)CC1 is 70% or above.
Output line: NO

Input line: Confirm if m1 % Eff reported for the compound CCCC1CCN(CCCn2ncc3ccccc32)CC1 is 70% or above.
Output line: YES

Input line: Confirm if m1 % Eff reported for the compound CCCCC1CCN(CCCc2nc3c([N+](=O)[O-])cccc3[nH]2)CC1 is 70% or above.
Output line: NO

Input line: Confirm if m1 % Eff reported for the compound CC(C)CCC1CCN(CCCn2ncc3ccccc32)CC1 is 70% or above.
Output line: NO

Input line: Confirm if m1 % Eff reported for the compound CCCCC1CCN(CCCn2ccc3ccccc32)CC1 is 70% or above.
Output line: NO

* * *

Hi there, I'd appreciate the recorded m4 pEC50 for every entry that follows.
Target: m4 muscarinic receptor subtype (Homo sapiens, UniProt P08173)
Construct: expressed in transfected cells; host or cells: NIH-3T3 (ATCC CRL 1658)
Sequence (P08173 1-479): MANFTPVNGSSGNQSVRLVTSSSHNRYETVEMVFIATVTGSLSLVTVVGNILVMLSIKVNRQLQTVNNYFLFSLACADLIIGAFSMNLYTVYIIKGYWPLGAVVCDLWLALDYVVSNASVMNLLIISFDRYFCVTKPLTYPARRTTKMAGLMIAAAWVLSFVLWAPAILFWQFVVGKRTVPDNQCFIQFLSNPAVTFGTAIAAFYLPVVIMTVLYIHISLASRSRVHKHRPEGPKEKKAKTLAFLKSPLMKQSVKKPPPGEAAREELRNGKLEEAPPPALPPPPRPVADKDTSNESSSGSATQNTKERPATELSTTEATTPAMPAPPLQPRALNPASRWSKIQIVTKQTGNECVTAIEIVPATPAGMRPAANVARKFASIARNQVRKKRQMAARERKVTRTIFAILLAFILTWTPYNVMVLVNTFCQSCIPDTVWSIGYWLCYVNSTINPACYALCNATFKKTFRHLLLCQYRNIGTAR
Assay: R-SAT assay, muscarinic receptor subtype m4
Assay type: cell-based
Details: transfected NIH-3T3 cells, 5 days
Give your answer as a number; write no unit.

Input line: Provide the documented m4 pEC50 with m4 muscarinic receptor subtype (Homo sapiens, UniProt P08173) as the system for CCCCC1CCN(CCCn2ncc3ccccc32)CC1 [Example 19]
Output line: 6.5

Input line: Provide the documented m4 pEC50 with m4 muscarinic receptor subtype (Homo sapiens, UniProt P08173) as the system for CCCCC1CCN(CCCn2c(C)cc3ccccc32)CC1 [Example 77]
Output line: 6.3

Input line: Provide the documented m4 pEC50 with m4 muscarinic receptor subtype (Homo sapiens, UniProt P08173) as the system for CCCCC1CCN(CCCc2n[nH]c3ccccc23)CC1.Cl [Example 89]
Output line: 6.8

Input line: Provide the documented m4 pEC50 with m4 muscarinic receptor subtype (Homo sapiens, UniProt P08173) as the system for CCCCC1CCN(CCCn2nnc3ccccc32)CC1 [Example 61]
Output line: 6.0
